# System: human lung fibroblasts (HLF)
# EXPERIMENT_SUMMARY: HLF proliferation by BrdU incorporation (DELFIA), driven by FBS or PDGF
# Type: cell-based
# MEASUREMENT_PARAMETERS: Homo sapiens, Fibroblast, inhibition of BrdU incorporation, 24 h, EC80 concentration of PDGF, mean ± SEM, NC = not calculated due to incomplete curve, read-out: Proliferation vs PDGF pEC50 (converted)

{"MOLECULE": "COc1ccc(CC(C)NCC(O)c2ccc(O)c(NC=O)c2)cc1 (stereo not shown) [Formoterol]", "UNIT_DESCRIPTOR": "nM", "EC50": 0.832}
{"MOLECULE": "CC(C)(C)NCC(O)c1ccc(O)c(CO)c1 (stereo not shown) [Salbutamol]", "UNIT_DESCRIPTOR": "nM", "EC50": 10.5}
{"MOLECULE": "CCCCC(C)(O)C/C=C/[C@H]1[C@H](O)CC(=O)[C@@H]1CCCCCCC(=O)OC (mixture of isomers) [Misoprostol]", "UNIT_DESCRIPTOR": "nM", "EC50": 741}
{"MOLECULE": "CCCCC[C@H](O)CC[C@@H]1[C@H]2Cc3cccc(OCC(=O)O)c3C[C@H]2C[C@H]1O [Treprostinil]", "UNIT_DESCRIPTOR": "nM", "EC50": 29.5}
